The origin of these recorded values is patent US20240317744A1.

Target: catalytic domain (JH1, amino acids 808-1132) of human JAK2 (Homo sapiens)
Sequence (O60674 808-1132 limits assumed): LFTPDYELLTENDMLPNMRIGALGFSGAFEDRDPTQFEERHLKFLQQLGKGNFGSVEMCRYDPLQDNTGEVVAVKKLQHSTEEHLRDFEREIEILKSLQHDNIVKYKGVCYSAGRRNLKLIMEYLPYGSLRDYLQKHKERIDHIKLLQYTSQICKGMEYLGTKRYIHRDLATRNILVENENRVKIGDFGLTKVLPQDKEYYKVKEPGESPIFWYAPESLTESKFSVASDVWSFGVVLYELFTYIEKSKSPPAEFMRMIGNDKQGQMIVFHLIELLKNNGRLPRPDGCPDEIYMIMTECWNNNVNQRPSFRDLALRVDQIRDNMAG
Assay: JAK2 HTRF Enzyme Activity Assay
Conditions: ATP 30 µM, 60 minutes at 25° C.; read-out: V617F ENZ 30 UM
pIC50: −log10 of the molar value.

| compound-smiles | pIC50 |
| --- | --- |
| [2H]C([2H])([2H])n1c(=O)n([C@@H]2CC[C@@H](NC(=O)OC)C2)c2cc(Nc3cc(C(=O)N4CCC(C#N)CC4)c4cccc(C(F)(F)F)c4n3)ncc21 | 6.30 to 7.00 |
| [2H]C([2H])([2H])n1c(=O)n([C@@H]2CC[C@@H](NC(=O)OC)C2)c2cc(Nc3cc(-c4cnccc4C(F)(F)F)cc(-c4ccc(C(F)F)s4)n3)ncc21 | < 6.00 |
| [2H]C([2H])([2H])n1c(=O)n([C@@H]2CC[C@@H](NC(=O)OC)C2)c2cc(Nc3cc(C(=O)N4CCCC(F)(F)C4)c4cccc(C(F)(F)F)c4n3)ncc21 | < 6.00 |
| COC(=O)Nc1cc(Nc2cc3c(cn2)n(C)c(=O)n3[C@@H]2CC[C@H](F)C2)cc(-c2cnn(C)c2)c1 | < 6.00 |
| COC(=O)N[C@@H]1CC[C@@H](n2c(=O)n(C)c3cnc(Nc4ccnc(N5CCC6(CC6)C5)n4)cc32)C1 | < 6.00 |
| [2H]C([2H])([2H])n1c(=O)n([C@@H]2CC[C@@H](NC(=O)OC)C2)c2cc(Nc3ccc4cc(-c5cnn(C)c5)cc(C(F)(F)F)c4n3)ncc21 | < 6.00 |

---

Biological target: pseudo-kinase domain (JH2, amino-acids 536-812) of human V617F mutant JAK2 (Homo sapiens, UniProt O60674, F794H/V617F/W659A/W777A)
Construct: pseudo-kinase domain (JH2, amino-acids 536-812 with 3 surface mutations W659A, W777A, F794H); His (C)
Sequence (O60674 536-812 V617F/W659A/W777A/F794H): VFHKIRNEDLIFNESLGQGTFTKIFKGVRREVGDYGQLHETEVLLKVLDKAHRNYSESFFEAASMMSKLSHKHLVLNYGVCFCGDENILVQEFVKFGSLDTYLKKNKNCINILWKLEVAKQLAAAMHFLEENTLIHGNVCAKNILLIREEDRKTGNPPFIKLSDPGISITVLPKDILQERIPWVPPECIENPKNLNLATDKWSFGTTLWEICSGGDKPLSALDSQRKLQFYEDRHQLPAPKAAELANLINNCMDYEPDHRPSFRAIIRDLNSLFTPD
Experiment: JAK2 LanthaScreen JH2-V617F Binding Assay
Details: JAK2 JH2-V617F 0.26 nM, 50 nM tracer, 1 hour at 25° C.; read-out: JH2 BIND V617F
Procedure: Example C. JAK2 LanthaScreen JH2-V617F Binding Assay JAK2 JH2-V617F binding assay utilizes pseudo-kinase domain (JH2, amino-acids 536-812 with 3 surface mutations W659A, W777A, F794H) of human V617F mutant JAK2 expressed as C-terminal His-Avi-tagged, biotinylated protein in a baculovirus expression system (BPS Bioscience, Catalog #79498). […] After incubation for 1 hour at 25° C., LanthaScreen signals were read on a PHERAstar FS plate reader (BMG LABTECH). […]
pIC50: −log10 of the molar value.
The entries below come with measured pIC50 values attached.

| molecule | pIC50 |
| --- | --- |
| COC(=O)N[C@@H]1CC[C@@H](n2c(=O)n(C)c3cnc(Nc4cccc(-c5ccc6ncccc6c5)n4)cc32)C1 | ≥ 8.00 |
| COC(=O)N[C@@H]1CC[C@@H](n2c(=O)n(C)c3cnc(Nc4cccc(C(=O)NC5CCCCC5)n4)cc32)C1 | 7.00 to 8.00 |
| COC(=O)N[C@@H]1CC[C@@H](n2c(=O)n(C)c3cnc(Nc4ccn5ncc(-c6cnn(C)c6)c5n4)cc32)C1 | 7.00 to 8.00 |
| [2H]C([2H])([2H])n1c(=O)n([C@@H]2CC[C@@H](NC(=O)OC)C2)c2cc(Nc3cc(C(=O)N4CCOCC4)cc(-c4ccc(C(F)F)s4)n3)ncc21 | ≥ 8.00 |
| [2H]C([2H])([2H])n1c(=O)n([C@@H]2CC[C@](C)(NC(C)=O)C2)c2cc(Nc3cc(C(C)(C)O)cc(-c4cnc(OC)s4)n3)ncc21 | ≥ 8.00 |
| COC(=O)N[C@@H]1CC[C@@H](n2c(=O)n(C)c3cnc(Nc4ccc(F)c(-c5ccc(OC(F)(F)F)cc5)n4)cc32)C1 | 7.00 to 8.00 |
| [2H]C([2H])([2H])n1cc(-c2cnc3ccc(Nc4cc5c(cn4)n(C)c(=O)n5[C@@H]4CC[C@@H](NC(=O)OC)C4)nn23)c(F)n1 | ≥ 8.00 |
| CCOC(=O)N[C@@H]1CC[C@@H](n2c(=O)n(C)c3cnc(Nc4cc(NC(=O)OC5CCC5)cc(-c5cnn(C)c5)c4)cc32)C1 | 7.00 to 8.00 |
| [2H]C([2H])([2H])n1c(=O)n([C@@H]2CC[C@@]([2H])(NC(=O)OC)C2)c2cc(Nc3cc(C4CCN(C)CC4)cc(-c4ncc(C(C)(C)O)s4)n3)ncc21 | ≥ 8.00 |
| COC(=O)Nc1cc(Nc2cc3c(cn2)n(C)c(=O)n3[C@@H]2CCC(F)(F)C2)cc(-c2cnn(C)c2)c1 | 6.30 to 7.00 |
| [2H]C([2H])([2H])n1c(=O)n([C@@H]2CC[C@](C)(NC(=O)OC)C2)c2cc(Nc3ccc4c(n3)c(-c3cnn(C(F)(F)F)c3)nn4CC(C)(C)O)ncc21 | ≥ 8.00 |
| [2H]C([2H])([2H])n1c(=O)n([C@@H]2CC[C@@H](NC(=O)OC)C2)c2cc(Nc3cc(C(=O)N4CCN5CCCCC5C4)cc(-c4ccc5c(c4)OCCO5)n3)ncc21 (stereo partly drawn) | ≥ 8.00 |

---

Molecular target: catalytic domain (JH1, amino acids 826-1132) of human JAK2 (Homo sapiens, UniProt O60674)
Construct: catalytic domain (JH1, amino acids 826-1132) of human JAK2; FLAG (N); biotin (biotinylated)
Assay: JAK2 LanthaScreen JH1 Binding Assay
Conditions: JAK2 JH1 1.5 nM, 50 nM tracer, 2 hours at 25° C.; read-out: JH1 BIND

| compound | IC50 |
| --- | --- |
| C#CCOC(=O)N[C@@H]1CC[C@@H](n2c(=O)n(C)c3cnc(Nc4cc(NC(=O)OC5CCC5)cc(-c5cnn(C)c5)c4)cc32)C1 | > 1000 nM |
| COC(=O)N[C@@H]1CC[C@@H](n2c(=O)n(C)c3cnc(Nc4ccnc(NC5CCOCC5)n4)cc32)C1 | > 1000 nM |
| [2H]C([2H])([2H])n1c(=O)n([C@@H]2CC[C@@H](NC(=O)OC)C2)c2cc(Nc3cc(C4CCN(C(C)=O)CC4)cc(-c4ncc(C(F)(F)F)s4)n3)ncc21 | > 1000 nM |
| COC(=O)N[C@@H]1CC[C@@H](n2c(=O)n(C)c3cnc(Nc4cccc(C(=O)N5CCCCC5)n4)cc32)C1 | > 1000 nM |
| COC(=O)N[C@@H]1CC[C@@H](n2c(=O)n(C)c3cnc(Nc4cc(NC(=O)OC5CCC5)cc(C5CCOCC5)c4)cc32)C1 | > 1000 nM |
| [2H]C([2H])([2H])n1c(=O)n([C@H]2CC[C@@](C)(NC(=O)C3CC3)CC2)c2cc(Nc3ccc4nn(C)c(-c5cnn(C(F)(F)F)c5)c4n3)ncc21 (single isomer, unassigned) | > 1000 nM |

---

Target: pseudo-kinase domain (JH2, amino-acids 536-812) of human V617F mutant JAK2 (Homo sapiens, UniProt O60674, F794H/V617F/W659A/W777A)
Construct: pseudo-kinase domain (JH2, amino-acids 536-812 with 3 surface mutations W659A, W777A, F794H); His (C)
Test: JAK2 LanthaScreen JH2-V617F Binding Assay
Details: JAK2 JH2-V617F 0.26 nM, 50 nM tracer, 1 hour at 25° C.; read-out: JH2 BIND V617F
Protocol: Example C. JAK2 LanthaScreen JH2-V617F Binding Assay JAK2 JH2-V617F binding assay utilizes pseudo-kinase domain (JH2, amino-acids 536-812 with 3 surface mutations W659A, W777A, F794H) of human V617F mutant JAK2 expressed as C-terminal His-Avi-tagged, biotinylated protein in a baculovirus expression system (BPS Bioscience, Catalog #79498). […] After incubation for 1 hour at 25° C., LanthaScreen signals were read on a PHERAstar FS plate reader (BMG LABTECH). […]
readout-label: IC50

| molecule | readout-label | experimental-result |
| --- | --- | --- |
| [2H]C([2H])([2H])n1c(=O)n(C2CC3(CC(NC(=O)C4CC4)C3)C2)c2cc(Nc3cc(C(=O)N4CCOCC4)c4cccc(C(F)(F)F)c4n3)ncc21 (stereo not shown) [Example 90] | IC50 | ≤ 10 nM |
| COC(=O)N[C@@H]1CC[C@@H](n2c(=O)n(C)c3cnc(Nc4ccnc(NC5CCC(F)(F)C5)n4)cc32)C1 (stereo partly shown) [Example 83] | IC50 | 10 to 100 nM |
| [2H]C([2H])([2H])n1c(=O)n([C@@H]2CC[C@@H](NC(=O)OC)C2)c2cc(Nc3ccc4cc(-c5cnn(C)c5)cc(C(F)(F)F)c4n3)ncc21 [Example 20] | IC50 | ≤ 10 nM |
| [2H]C([2H])([2H])n1c(=O)n([C@@H]2CC[C@@H](NC(=O)OC)C2)c2cc(Nc3cc(-c4cnn(C)c4)cc(-c4ncc(C(C)(C)O)s4)n3)ncc21 [Example 107] | IC50 | ≤ 10 nM |
| [2H]C([2H])([2H])NC(=O)C12CCC(n3c(=O)n(C([2H])([2H])[2H])c4cnc(Nc5cc(C(C)(C)O)cc(-c6ncc(C(F)(F)F)s6)n5)cc43)(CC1)CC2 [Example 137] | IC50 | ≤ 10 nM |
| [2H]C([2H])([2H])n1c(=O)n([C@H]2C[C@H](C(C)(C)O)C2)c2cc(Nc3cc(-c4cnccc4C(F)(F)F)c4nc(C)c(-c5cnn(C(F)F)c5)n4n3)ncc21 [Example 106] | IC50 | ≤ 10 nM |
| COC(=O)N[C@@H]1CC[C@@H](n2c(=O)n(C)c3cnc(Nc4ccnc(N5CCC(C(F)(F)F)CC5)n4)cc32)C1 [Example 79] | IC50 | ≤ 10 nM |
| Cn1cc(-c2cc(NC(=O)OC3CCC3)cc(Nc3cc4c(cn3)n(C)c(=O)n4C3CCCC3)c2)cn1 [Example 60] | IC50 | 10 to 100 nM |
| [2H]C1(NC(=O)OC)CC[C@@H](n2c(=O)n(C([2H])([2H])[2H])c3cnc(Nc4ccc5c(n4)c(-c4cnn(C(F)(F)F)c4)nn5CC4(C#N)CC4)cc32)C1 (stereo partly shown) [Example 133] | IC50 | ≤ 10 nM |
| [2H]C([2H])([2H])n1c(=O)n([C@H]2C[C@H](NC(=O)OC)[C@@H](O)C2)c2cc(Nc3cc(C(C)(C)O)cc(-c4ncc(C(F)(F)F)s4)n3)ncc21 [Example 155] | IC50 | ≤ 10 nM |
| [2H]C([2H])([2H])n1c(=O)n([C@@H]2CC[C@@]([2H])(NC(=O)OC)C2)c2cc(Nc3cc(C)c(F)c(-c4ncc(C(C)(C)O)s4)n3)ncc21 [Example 149] | IC50 | ≤ 10 nM |
| Cn1cc(-c2cc(NC(=O)OC3CCC3)cc(Nc3cc4c(cn3)n(C)c(=O)n4[C@@H]3CC[C@@H](NC(=O)OC4CCC4)C3)c2)cn1 [Example 45] | IC50 | 10 to 100 nM |
| [2H]C([2H])([2H])n1c(=O)n([C@@H]2CC[C@@H](NC(=O)OC)C2)c2cc(Nc3cc(CNC4CCCC4)cc(-c4ccc5c(c4)OCCO5)n3)ncc21 [Example 65] | IC50 | ≤ 10 nM |
| [2H]C([2H])([2H])n1c(=O)n([C@@H]2CC[C@@H](NC(=O)OC)C2)c2cc(Nc3cc(C(C)(C)O)cc(-c4ncc(C(F)(F)F)s4)n3)ncc21 [Example 100] | IC50 | ≤ 10 nM |
| COC(=O)N[C@@H]1CC[C@@H](n2c(=O)n(C)c3cnc(Nc4ccnc(N5CCCCC5)n4)cc32)C1 [Example 66] | IC50 | 10 to 100 nM |
| COC(=O)N[C@@H]1CC[C@@H](n2c(=O)n(C)c3cnc(Nc4cc(NC(=O)[C@H]5CC5(F)F)cc(C5CCOCC5)c4)cc32)C1 [Example 17] | IC50 | ≤ 10 nM |
| COC(=O)N[C@@H]1CC[C@@H](n2c(=O)n(C)c3cnc(Nc4cc(NS(=O)(=O)C5CC(F)(F)C5)cc(C5CCOCC5)c4)cc32)C1 [Example 41] | IC50 | 10 to 100 nM |
| COC(=O)Nc1cc(Nc2cc3c(cn2)n(C)c(=O)n3C2CC3(CC(NS(=O)(=O)C4CC4)C3)C2)cc(-c2cnn(C)c2)c1 (stereo not shown) [Example 26] | IC50 | 10 to 100 nM |
| [2H]C([2H])([2H])n1c(=O)n([C@@H]2CC[C@@H](NC(=O)OC)C2)c2cc(Nc3cc(C4CCOCC4)cc(-c4ncc(C(C)(C)O)s4)n3)ncc21 [Example 161] | IC50 | ≤ 10 nM |
| [2H]C([2H])([2H])n1c(=O)n([C@@H]2CC[C@@H](NC(=O)OC)C2)c2cc(Nc3cc(C(=O)N4CCOCC4)c4cc(C)cc(C(F)(F)F)c4n3)ncc21 [Example 135] | IC50 | ≤ 10 nM |
| [2H]C([2H])([2H])n1c(=O)n([C@@H]2CC[C@@]([2H])(NC(=O)OC)C2)c2cc(Nc3cc(-c4cccnc4C(F)(F)F)cc(-c4ncc(C(C)(C)O)s4)n3)ncc21 [Example 167] | IC50 | ≤ 10 nM |
| [2H]C([2H])([2H])n1c(=O)n([C@@H]2CC[C@]([2H])(NC(=O)OC)C2)c2cc(Nc3cc(C4CCOCC4)cc(-c4ncc(C(C)(C)O)s4)n3)ncc21 [Example 163] | IC50 | ≤ 10 nM |
